src = patent US8642788B2

Experimental Target: procaspase-7 (Homo sapiens)
Construct: His6 (C)
Sequence (P55210 whole entry): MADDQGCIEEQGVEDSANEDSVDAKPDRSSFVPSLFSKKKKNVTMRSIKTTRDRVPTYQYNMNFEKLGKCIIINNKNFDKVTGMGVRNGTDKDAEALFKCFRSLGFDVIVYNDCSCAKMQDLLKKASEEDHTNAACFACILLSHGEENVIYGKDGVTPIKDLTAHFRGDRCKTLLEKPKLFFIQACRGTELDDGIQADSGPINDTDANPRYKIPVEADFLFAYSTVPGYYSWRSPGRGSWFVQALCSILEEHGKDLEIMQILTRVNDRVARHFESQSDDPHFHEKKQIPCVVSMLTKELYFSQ
Assay Explanation: Executioner procaspase-7 activation assay (Ac-DEVD-AFC fluorogenic substrate)
Test Parameters: incubation with compound for 5 h at 37° C.; 100 nM procaspase
Readings of EC50 for the listed compounds
Measure Name: EC50

Compound: COc1cccc2cc(C(=O)Nc3cccc(-c4ccc5cc[nH]c5c4)c3)c(=O)oc12 [compound 166]
Reported Value: > 100 µM
--
Compound: O=C(Nc1cccc(-c2ccccc2S(=O)(=O)N2CCOCC2)c1)c1cc2cccc(O)c2oc1=O [compound 98]
Reported Value: 10 to 50 µM
--
Compound: COc1ccc2cc(-c3cccc(NC(=O)c4cc5cccc(OC)c5oc4=O)c3)ccc2c1 [compound 78]
Reported Value: > 100 µM
--
Compound: COc1ncccc1-c1cccc(NC(=O)c2cc3cccc(O)c3oc2=O)c1 [compound 141]
Reported Value: 10 to 50 µM
--
Compound: COc1cccc2cc(C(=O)Nc3cccc(-c4ccc(F)c(C#N)c4)c3)c(=O)oc12 [compound 146]
Reported Value: > 100 µM
--
Compound: CCOc1ncccc1-c1cccc(NC(=O)c2cc3cccc(O)c3oc2=O)c1 [compound 41]
Reported Value: > 100 µM
--
Compound: CCOc1ncccc1-c1cccc(NC(=O)c2cc3cccc(OC(F)(F)F)c3oc2=O)c1 [compound 43]
Reported Value: > 100 µM
--
Compound: O=C(Nc1cccc(-c2ccc3c(c2)OCO3)c1)c1cc2cccc(O)c2oc1=O [compound 62]
Reported Value: 10 to 50 µM
